measurement-protocol: Peptide stability in simulated intestinal fluid (SIF)
Assay type: in vitro ADME
recorded-conditions: pig, SAR tables, % peptide remaining, 37 °C, porcine pancreatin, pH 6.8, 4 h, read-out: SIF (% after 4 h)
Where a SMILES comes first, the peptide text is derived from it. Bridges are numbered along the chain shown (N, C = ends). [ ]: non-standard residue; d: D form. 2Nal = N[C@@H](Cc1ccc2ccccc2c1)C(=O)O; AEF = NCCOc1ccc(C[C@H](N)C(=O)O)cc1; 3Pal = N[C@@H](Cc1cccnc1)C(=O)O; αMeL = CC(C)C[C@](C)(N)C(=O)O; Dab = NCC[C@H](N)C(=O)O
Items are presented alongside their recorded remaining at 4 h, 10 µM.

Before answering, review these 2 worked examples.
{"molecule": "CNC(=O)[C@H](Cc1cccnc1)NC(=O)[C@H](CCN)NC(=O)[C@@H]1CCC(=O)NCCCC[C@@H]2NC(=O)CC[C@H](NC(=O)[C@H](CCC(N)=O)NC(=O)[C@H](Cc3c[nH]c4ccccc34)NC2=O)C(=O)N[C@@H](Cc2ccc(OCCN)cc2)C(=O)N[C@@H](Cc2ccc3ccccc3c2)C(=O)N[C@@](C)(CC(C)C)C(=O)N1 [Compound 43] (KWQE[AEF][2Nal][αMeL]E[Dab][3Pal]-NHMe; lactam 1-8, N-4)", "remaining at 4 h, 10 µM": "102%"}
{"molecule": "CC(C)C[C@]1(C)NC(=O)[C@H](Cc2ccc3ccccc3c2)NC(=O)[C@H](Cc2ccc(OCCN)cc2)NC(=O)[C@@H]2CCC(=O)N[C@H](CCCCNC(=O)CC[C@@H](C(=O)N[C@@H](CCN)C(=O)N[C@@H](Cc3cccnc3)C(N)=O)NC1=O)C(=O)N[C@@H]([C@@H](C)O)C(=O)N[C@@H](C(C)C)C(=O)N[C@@H](Cc1c[nH]c3ccccc13)C(=O)N[C@@H](CCC(N)=O)C(=O)N2", "remaining at 4 h, 10 µM": "0%"}

# context switch: different molecule, same remaining at 4 h, 10 µM
Q: Give its remaining at 4 h, 10 µM value. Item: "CNC(=O)[C@H](Cc1cccnc1)NC(=O)[C@H](CCN)NC(=O)[C@@H]1CCC(=O)NCCCC[C@H]2CC(=O)NCC(=O)N[C@@H](Cc3c[nH]c4ccccc34)C(=O)N[C@@H](CCC(N)=O)C(=O)N[C@@H](CCC(=O)N2)C(=O)N[C@@H](Cc2ccc(OCCN)cc2)C(=O)N[C@@H](Cc2ccc3ccccc3c2)C(=O)N[C@@](C)(CC(C)C)C(=O)N1"
Result: 42%

---

Catalogue of molecules with associated IC50
Target sequence: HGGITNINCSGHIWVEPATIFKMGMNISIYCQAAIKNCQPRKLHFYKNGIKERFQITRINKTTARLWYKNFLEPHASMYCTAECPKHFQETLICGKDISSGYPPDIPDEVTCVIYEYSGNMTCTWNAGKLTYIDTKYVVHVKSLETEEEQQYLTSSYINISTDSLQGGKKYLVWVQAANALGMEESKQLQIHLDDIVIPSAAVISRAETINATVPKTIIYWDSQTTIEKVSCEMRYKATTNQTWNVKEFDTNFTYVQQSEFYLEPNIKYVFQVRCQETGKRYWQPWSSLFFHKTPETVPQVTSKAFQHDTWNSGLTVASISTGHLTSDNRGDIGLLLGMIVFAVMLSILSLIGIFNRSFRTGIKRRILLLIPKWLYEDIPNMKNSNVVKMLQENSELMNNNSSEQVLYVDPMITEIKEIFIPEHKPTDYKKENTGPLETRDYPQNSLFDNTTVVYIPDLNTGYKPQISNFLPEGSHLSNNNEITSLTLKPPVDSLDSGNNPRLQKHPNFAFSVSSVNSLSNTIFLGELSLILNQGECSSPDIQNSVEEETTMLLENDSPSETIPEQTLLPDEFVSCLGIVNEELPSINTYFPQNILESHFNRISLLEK
Give your result in nM as a bare value.

Examples with their reported IC50 follow.
{"molecule": "COc1ccc(C[C@@H]2NC(=O)[C@@H]3CCC(=O)N[C@@H](CCCCNC(=O)CC[C@@H](C(=O)N[C@@H](CCCCNC(=O)c4ccccn4)C(N)=O)NC(=O)[C@](C)(CC(C)C)NC(=O)[C@H](Cc4ccc5ccccc5c4)NC2=O)C(=O)N[C@@H]([C@@H](C)O)C(=O)N[C@@H](C(C)C)C(=O)N[C@@H](Cc2c[nH]c4ccccc24)C(=O)N[C@@H](CCC(N)=O)C(=O)N3)cc1 [Compound 47]", "measure-unit": "nM", "IC50": 730}
{"molecule": "CC[C@H](C)[C@@H]1NC(=O)[C@@H]2CCCCNC(=O)CC[C@@H](C(=O)N[C@@H](CCN)C(=O)N[C@@H](Cc3cccnc3)C(=O)NC)NC(=O)[C@](C)(CC(C)C)NC(=O)[C@H](Cc3ccc4ccccc4c3)NC(=O)[C@H](Cc3ccc(OCCN)cc3)NC(=O)[C@H](CCC(=O)N2C)NC(=O)[C@H](CCC(N)=O)NC(=O)[C@H](Cc2c[nH]c3ccccc23)NC(=O)[C@H](C(C)C)NC1=O [Compound 75]", "measure-unit": "nM", "IC50": 0.017}

Next molecule, IC50 to be filled in.
Q: // lookup IC50 for CC(C)C[C@]1(C)NC(=O)[C@H](Cc2ccc3ccccc3c2)NC(=O)[C@H](Cc2ccc(OCCN)cc2)NC(=O)[C@@H]2CCC(=O)N[C@@H](CCCCNC(=O)CC[C@@H](C(=O)NCCCCc3cccnc3)NC1=O)C(=O)N[C@@H](CO)C(=O)N[C@@H](C(C)C)C(=O)N[C@@H](Cc1c[nH]c3ccccc13)C(=O)N[C@@H](CCC(N)=O)C(=O)N2 [Compound 30]
Result: 20
